Assay: in vitro
Conditions: mouse, liver microsomes
Description: Metabolic stability in mouse liver microsomes assessed as fraction unbound at 0.5 uM incubated for 30 mins by LC-MS/MS analysis
Attribute: fraction unbound at 0.5 h, 0.5 µM
ASSAY METRIC: fraction unbound at 0.5 h, 0.5 µM

INSERT INTO assay_data (molecule, assay_metric, reported_measurement) VALUES
  ('CN(CCc1cc2ncccc2[nH]1)C(=O)c1ccccc1', 'fraction unbound at 0.5 h, 0.5 µM', 0.83),
  ('Cc1nc(C)c(C(=O)N2CCCC(c3cc4ncccc4[nH]3)C2)o1 (centres undefined)', 'fraction unbound at 0.5 h, 0.5 µM', 0.801),
  ('O=C(c1ccccc1)N1CCN(c2nc3ccccc3s2)CC1', 'fraction unbound at 0.5 h, 0.5 µM', 0.518),
  ('CC(C)(C)c1cc(C(=O)N2CCCC(c3cc4ncccc4[nH]3)C2)on1 (centres undefined)', 'fraction unbound at 0.5 h, 0.5 µM', 0.598),
  ('O=C(CCc1nc2cccnc2n1CCO)Nc1ccccc1', 'fraction unbound at 0.5 h, 0.5 µM', 0.705),
  ('O=C(Cc1ccccc1)N1CCN(c2nc3ccccc3s2)CC1', 'fraction unbound at 0.5 h, 0.5 µM', 0.647),
  ('O=C(c1ccc(F)cc1)N1CCCC(c2cc3nc(C(F)(F)F)ccc3[nH]2)C1 (centres undefined)', 'fraction unbound at 0.5 h, 0.5 µM', 0.713),
  ('CCC(=O)N1CCCC(c2nc3ncc(Cl)cc3[nH]2)C1 (centres undefined)', 'fraction unbound at 0.5 h, 0.5 µM', 0.866),
  ('O=C(c1ccc(F)cc1)N1CCCC(c2cc3nc(Cl)ccc3[nH]2)C1 (centres undefined)', 'fraction unbound at 0.5 h, 0.5 µM', 0.676),
  ('COc1cc(C(=O)N2CCCC(c3cc4ncccc4[nH]3)C2)on1 (centres undefined)', 'fraction unbound at 0.5 h, 0.5 µM', 0.688),
  ('CCN(CCC(=O)Nc1cccnc1)C(=O)c1ccc(F)cc1', 'fraction unbound at 0.5 h, 0.5 µM', 0.571),
  ('O=C(c1cc(C2CC2)no1)N1CCCC(c2cc3ncccc3[nH]2)C1 (centres undefined)', 'fraction unbound at 0.5 h, 0.5 µM', 0.926),
  ('O=C(c1cc(C2CC2)no1)N1CCOC(c2cc3ncccc3[nH]2)C1 (centres undefined)', 'fraction unbound at 0.5 h, 0.5 µM', 0.896),
  ('O=C(c1ccccc1)N1CCCC(c2cn3cccnc3n2)C1 (centres undefined)', 'fraction unbound at 0.5 h, 0.5 µM', 0.805),
  ('O=C(c1ccccc1)N1CCC(c2cc3ncccc3[nH]2)CC1', 'fraction unbound at 0.5 h, 0.5 µM', 0.738),
  ('O=C(c1ccc(C(F)(F)F)nc1)N1CCCC(c2cc3ncccc3[nH]2)C1 (centres undefined)', 'fraction unbound at 0.5 h, 0.5 µM', 0.6),
  ('O=C(c1cc(C(F)(F)F)no1)N1CCC(c2cc3ncccc3[nH]2)C1 (centres undefined)', 'fraction unbound at 0.5 h, 0.5 µM', 0.656),
  ('O=C(c1cc(C(F)(F)F)no1)N1CCCC(c2cc3nc(NCc4ccccc4)ccc3[nH]2)C1 (centres undefined)', 'fraction unbound at 0.5 h, 0.5 µM', 0.0857),
  ('Nc1cc(C2CCCN(C(=O)c3ccccc3)C2)[nH]n1 (centres undefined)', 'fraction unbound at 0.5 h, 0.5 µM', 0.684),
  ('Cn1nccc1C(=O)N1CCCC(c2cc3ncccc3[nH]2)C1 (centres undefined)', 'fraction unbound at 0.5 h, 0.5 µM', 0.89),
  ('O=C(c1cc(C(F)(F)F)no1)N1CCOC(c2cc3ncccc3[nH]2)C1 (centres undefined)', 'fraction unbound at 0.5 h, 0.5 µM', 0.825),
  ('O=C(c1ccccc1)N1CCCC(c2nc3ncccc3[nH]2)C1 (centres undefined)', 'fraction unbound at 0.5 h, 0.5 µM', 0.723),
  ('O=C(c1ccc(F)cc1)N1CCCC(c2cc3ncc(Cl)cc3[nH]2)C1 (centres undefined)', 'fraction unbound at 0.5 h, 0.5 µM', 0.775),
  ('O=C(c1ccccc1)N1CCCC(c2cc3ncccn3n2)C1 (centres undefined)', 'fraction unbound at 0.5 h, 0.5 µM', 0.211),
  ('O=C(c1cc(C(F)(F)F)n[nH]1)N1CCCC(c2cc3ncccc3[nH]2)C1 (centres undefined)', 'fraction unbound at 0.5 h, 0.5 µM', 0.493),
  ('COc1ccc2[nH]c(C3CCCN(C(=O)c4ccc(F)cc4)C3)cc2n1 (centres undefined)', 'fraction unbound at 0.5 h, 0.5 µM', 0.815),
  ('CN(C(=O)c1ccccc1)c1cccc(-c2cc3ncccc3[nH]2)c1', 'fraction unbound at 0.5 h, 0.5 µM', 0.653),
  ('O=C1c2ccccc2CN1CCc1cc2ncccc2[nH]1', 'fraction unbound at 0.5 h, 0.5 µM', 0.626),
  ('O=C(c1cc(C(F)(F)F)no1)N1CCCC(c2cc3ncc(Br)cc3[nH]2)C1 (centres undefined)', 'fraction unbound at 0.5 h, 0.5 µM', 0.491),
  ('O=C(c1ccccc1)N1CCCC(c2cn3ncccc3n2)C1 (centres undefined)', 'fraction unbound at 0.5 h, 0.5 µM', 0.877),
  ('CCN(C(=O)CCc1nc2ncccc2[nH]1)c1ccccc1', 'fraction unbound at 0.5 h, 0.5 µM', 0.767),
  ('O=C(c1cc(C(F)(F)F)no1)N1CCCC(c2cc3ncccc3[nH]2)C1 (centres undefined)', 'fraction unbound at 0.5 h, 0.5 µM', 0.615),
  ('O=C(c1cc(C(F)(F)F)no1)N1CCCC(c2cc3ncc(-c4ccccc4)cc3[nH]2)C1 (centres undefined)', 'fraction unbound at 0.5 h, 0.5 µM', 0.157),
  ('Cc1nc(C)c(C(=O)N2CCCC(c3cc4ncccc4[nH]3)C2)s1 (centres undefined)', 'fraction unbound at 0.5 h, 0.5 µM', 0.96),
  ('Nc1cc(C2CCCN(C(=O)c3cc(C(F)(F)F)no3)C2)[nH]n1 (centres undefined)', 'fraction unbound at 0.5 h, 0.5 µM', 0.991),
  ('CC(C)(C)OC(=O)N1CCCC(c2cn3cccnc3n2)C1 (centres undefined)', 'fraction unbound at 0.5 h, 0.5 µM', 0.836);
